# Tested on: HOP-62
# EXPERIMENT_SUMMARY: NCI tumour cell line growth inhibition, 48 h
Activity calls are given as the source filed them. Rule as the data show it: active = GI50 up to about 1.1 µM and inactive = higher.
Choose one outcome from this list and give only that: 1 (yes) for active, 0 (no) for inactive

(Q) Given Cn1c2ccccc2c2c3c(c4c5ccccc5n(C)c4c21)C(=O)NC3=O , state the outcome it received in this test.
(A) 0 (no)

(Q) Proceed to Cc1nn(-c2ccccc2)c2nc(N3CCOCC3)nnc12
(A) 0 (no)

(Q) Proceed to CC(C)OP(=O)(OC(C)C)C(C)(C)O
(A) 0 (no)

(Q) Proceed to C[C@]12CCC(=O)C=C1CC[C@@H]1[C@@H]2CC[C@]2(C)C(=O)/C(=C/c3ccc([N+](=O)[O-])cc3)C[C@@H]12
(A) 0 (no)

(Q) Proceed to O=CC(O)C(O)C(O)C1CNC(=S)O1 (stereo not drawn)
(A) 0 (no)

(Q) Proceed to CCCCCCCCCCCCCCCC(=O)NCC(COP(=O)([O-])OCC[N+](C)(C)C)OCC (stereo not drawn)
(A) 0 (no)

(Q) Proceed to O=C(N/C(=C\c1ccc2c(c1)OCO2)c1nc2ccccc2[nH]1)c1ccccc1
(A) 0 (no)

(Q) Proceed to CNC(=O)C1(N)c2ccccc2C=Cc2ccccc21
(A) 0 (no)

(Q) Proceed to CCC12C=CCN3CCC4(c5cc(C(c6ccc(OC)cc6)C6Cc7ccccc7N6)c(OC)cc5N(C)C4C(O)(C(=O)OC)C1O)C32 (stereo not drawn)
(A) 0 (no)

(Q) Proceed to CO[C@@]1(c2ccccc2)O[C@H]2OCCC2[C@H]1c1ccc(Cl)cc1 (stereo partly drawn)
(A) 0 (no)

(Q) Proceed to C[N+](C)(C)C1CC([N+](C)(C)C)C2c3ccccc3C21 (stereo not drawn)
(A) 0 (no)

(Q) Proceed to Oc1c(OCc2nnc(CCCCCCCCc3nnc(COc4ccc5ccccc5c4O)n3Nc3ccccc3)n2Nc2ccccc2)ccc2ccccc12
(A) 1 (yes)

(Q) Proceed to C[C@]1(O)O[C@@H]2OCC[C@@H]2C2=C1C(=O)c1ccccc1C2=O
(A) 0 (no)

(Q) Proceed to O=C1/C(=N/O)Cc2c(Br)ccc(Br)c21
(A) 0 (no)

(Q) Proceed to Nc1nc(SCCC/C=C/B(O)O)nc2c1ncn2C1OC(COP(=O)(O)O)C(O)C1O (stereo not drawn)
(A) 0 (no)

(Q) Proceed to CC(NC(=O)c1ccccc1)(C(=O)O)C(=O)O
(A) 0 (no)

(Q) Proceed to Cc1cc(=O)oc2c(CNC(C(=O)O)C(C)O)c(O)ccc12 (stereo not drawn)
(A) 0 (no)

(Q) Proceed to Cc1ccc(S(=O)(=O)N2CCN(S(=O)(=O)c3ccc(C)cc3)Cc3ccccc3C2)cc1
(A) 0 (no)

###

# Test system: SNB-19
# EXPERIMENT_SUMMARY: NCI tumour cell line growth inhibition, 48 h
Activity calls are given as the source filed them. Rule as the data show it: active = GI50 up to about 1.1 µM and inactive = higher.
So I've got a bunch of compounds here, and I need their GI50 values.

(Q) API: value(readout=GI50, system=SNB-19) for record N#Cc1ccccc1NC(=O)c1ccccc1
(A) > 100 µM (inactive)

(Q) Proceed to CCOC(=O)CSc1c(C(=O)OCC)c(=O)n(-c2ccccc2)c(=S)n1-c1ccccc1
(A) 34.7 µM (inactive)

(Q) Proceed to C=CCC1C(=O)CC2(C)CC(=O)C(CC=C)C12C (stereo not given)
(A) > 100 µM (inactive)

(Q) Proceed to C=C1C(=O)O[C@@H]2C[C@@H](C)[C@@H]3[C@@H](OC4OC(COC(C)=O)C(O)C(O)C4O)CC(=O)[C@@]3(C)C[C@H]12 (stereo not given in full)
(A) 20.2 µM (inactive)

(Q) Proceed to CC(=O)OCc1cc2ccccc2nc1C(Br)(Br)Br
(A) 20.1 µM (inactive)

###

So I've got a bunch of compounds here, and I need their GI50 values.
# Tested on: IGROV-1
# EXPERIMENT_SUMMARY: NCI tumour cell line growth inhibition, 48 h
The source made the active and inactive calls. No stated cut-off is given here; in the data, active = GI50 up to about 1.1 µM and inactive = higher.

(Q) Requested read-out: GI50. Entry: O=C1CC2CCN(C(=O)c3ccccc3)CC2CCN1.O=C1CCC2CC(C(=O)c3ccccc3)CCC2CN1 (configuration not stated)
(A) > 100 µM (inactive)

(Q) Proceed to OC(CC(O)(C(F)(F)F)C(F)(F)F)C(O)c1ccco1 (configuration not stated)
(A) > 10 µM (inactive)

(Q) Proceed to CCC12C=CCN(CCc3c([nH]c4ccccc34)/C=C\1)C2 (configuration not stated)
(A) > 100 µM (inactive)

(Q) Proceed to Nc1nc(=O)c(/N=N/c2ccccc2)c(C(=O)O)[nH]1
(A) 85.7 µM (inactive)

(Q) Proceed to N#CC1(C#N)C2C=CC(C3CCC=C32)C1(C#N)C#N (configuration not stated)
(A) > 10 µM (inactive)

(Q) Proceed to O=c1[nH]c(=O)n(C2CC(O)C(CO)O2)cc1OCc1ccccc1 (configuration not stated)
(A) > 100 µM (inactive)

(Q) Proceed to CCCCCNC(=O)C1C(=O)N(CCCCC)C(=O)/C1=N\N (configuration not stated)
(A) 53 µM (inactive)

###

# System: UACC-62
# EXPERIMENT_SUMMARY: NCI tumour cell line growth inhibition, 48 h
Activity calls are given as the source filed them. Rule as the data show it: active = GI50 up to about 1.1 µM and inactive = higher.
Choose one outcome from this list and give only that: active, inactive

(Q) Given COc1ccc2c(c1)CCc1c-2n(CCN2CCCCC2)c2ccc(OC)cc12 , state the outcome it received in this test.
(A) inactive

(Q) Proceed to Cc1cc(=O)oc2c(CNC(C(=O)O)C(C)O)c(O)ccc12 (stereo not given)
(A) inactive

(Q) Proceed to C/C(=C\CCC1=CC(=O)OC1)CC[C@@H]1[C@H]2C(=O)CC(C)[C@@]3(C)CC[C@]1(C)[C@@]23C (stereo not given in full)
(A) inactive

(Q) Proceed to O=C1CCCc2c1c1c(n2Cc2ccccc2)-c2ccccc2C1=O
(A) inactive

(Q) Proceed to Cc1c2ncccc2c(C)c2c1[nH]c1ccc(O)cc12
(A) inactive

(Q) Proceed to COc1ccc(C2c3cc4c(cc3OC(N3CCOCC3)C2C)OCO4)c(OC)c1 (stereo not given)
(A) inactive

(Q) Proceed to N#Cc1nc(Nc2ccc(Cl)cc2)sc1N
(A) inactive

(Q) Proceed to CC1(C)CCCCCC(C)(CCCCCCCCCCCO)C1=O (stereo not given)
(A) inactive

(Q) Proceed to c1ccc(-c2cn3nc(N4CCOCC4)sc3n2)cc1
(A) inactive

(Q) Proceed to COC(=O)C1CC(=O)CCC1c1ccccc1 (stereo not given)
(A) inactive

(Q) Proceed to C=C(Cl)C(Cl)(CBr)CCCC(C)(C)Cl (stereo not given)
(A) inactive

(Q) Proceed to COc1cccc(C2c3cc4c(cc3OC3COC(=O)C32)OCO4)c1OC (stereo not given)
(A) inactive

(Q) Proceed to CCOC(=O)c1c(-c2ccccc2)oc(=O)c(Cc2cccc3cccnc23)c1-c1ccccc1
(A) inactive

(Q) Proceed to COc1cc(OC)c(/C=C\c2ccnc3ccccc23)c(OC)c1
(A) inactive

(Q) Proceed to CC(=O)OC1C(C)OC(OC2C[C@](O)(C(C)=O)Cc3c(O)c4c(c(O)c32)C(=O)c2ccccc2C4=O)C(F)C1OC(C)=O (stereo not given in full)
(A) active

(Q) Proceed to Cn1c2ccccc2c2c3c(c4c5ccccc5n(C)c4c21)C(=O)NC3=O
(A) inactive

(Q) Proceed to COc1ccc(CCCC(=O)O)c(C)c1
(A) inactive

(Q) Proceed to Cc1c2c(c(C)c3c[n+](C)ccc13)Oc1ccccc1O2
(A) inactive

(Q) Proceed to CCC12C=CCN(CCc3c([nH]c4ccccc34)/C=C\1)C2 (stereo not given)
(A) inactive

(Q) Proceed to N#Cc1c(C#N)c(-c2ccco2)n(-c2ccccc2)c1N
(A) inactive

(Q) Proceed to O=CC(O)C(O)C(O)C1CNC(=S)O1 (stereo not given)
(A) inactive

(Q) Proceed to CC(=O)OCC(OC(C)=O)C(OC(C)=O)C(OC(C)=O)C(=O)CNn1c(-c2ccc(C)cc2)nc2ccccc2c1=O (stereo not given)
(A) inactive

(Q) Proceed to CSc1c(C#N)c(O)n(-c2ccc(Cl)cc2)c(=O)c1C#N
(A) inactive

(Q) Proceed to CC1C(O)Oc2cc3c(cc2C1c1ccccc1O)OCO3 (stereo not given)
(A) inactive

(Q) Proceed to S=C1c2cc(Cl)ccc2N=C(NC2CCCC2)C2CSCN12 (stereo not given)
(A) inactive

(Q) Proceed to O=C(CCc1ccc(O)cc1)c1c(O)cc(O)cc1OC1OC(CO)C(O)C(O)C1O (stereo not given)
(A) inactive

(Q) Proceed to O=[N+]([O-])c1ccc(OP(=O)(O)OCC2OC(CP(=O)(O)O)C(O)C2O)cc1 (stereo not given)
(A) inactive

(Q) Proceed to Nc1nc(=O)c(/N=N/c2ccccc2)c(C(=O)O)[nH]1
(A) inactive

(Q) Proceed to COC(=O)[C@@H]1CCCCC[C@H]2C(CO)=C(C)C(=O)C12 (stereo not given in full)
(A) inactive

(Q) Proceed to CCOC(=O)/C=C(/CN1C(=O)c2ccccc2C1=O)c1ccccc1
(A) inactive

(Q) Proceed to CCOC(=O)COc1cccc2occc(=O)c12
(A) inactive

(Q) Proceed to O=c1c(-c2ccccc2)c(SCCCN2CCCCC2)n(-c2ccccc2)c(=S)n1-c1ccccc1
(A) inactive

(Q) Proceed to C=C(Cl)/C(=C\Cl)CCC(Cl)C(C)C (stereo not given)
(A) inactive

(Q) Proceed to CN(C(=O)c1ccco1)C(=S)N1CCN(c2ccccc2)CC1
(A) inactive

(Q) Proceed to CCCCCCCCCCCCCCCCCCOCC(COCCOCC[N+]1(CCCCCC(=O)[O-])CCCC1)Oc1ncccn1 (stereo not given)
(A) inactive
